From: ChEMBL document CHEMBL5154640

tested on: Plasmodium yoelii nigeriensis; assay: Antimalarial activity against Plasmodium yoelii nigeriensis infected in Swiss mouse assessed as suppression of parasitemia at 96 mg/kg, po measured after 4 days relative to control; type: functional; details: time 4 day
Note to self: Activity under 40% means Criterion met, ties and anything higher get Criterion not met.

>  <compound>
C=C(c1ccc(OCCO)c2ccccc12)C1COC2(CCCCC2)OO1 (stereo unspecified)

>  <tested-system>
Plasmodium yoelii nigeriensis

>  <label-class>
Criterion not met

$$$$
>  <compound>
C=C(c1ccc(OC(C)(C)CO)c2ccccc12)C1COC2(CCCC2)OO1 (stereo unspecified)

>  <tested-system>
Plasmodium yoelii nigeriensis

>  <label-class>
Criterion not met

$$$$
>  <compound>
C=C(c1ccc(OC(C)(C)CO)c2ccccc12)C1COC2(OO1)C1CC3CC(C1)CC2C3 (stereo unspecified)

>  <tested-system>
Plasmodium yoelii nigeriensis

>  <label-class>
Criterion not met

$$$$
>  <compound>
C=C(c1ccc(OCCO)c2ccccc12)C1COC2(OO1)C1CC3CC(C1)CC2C3 (stereo unspecified)

>  <tested-system>
Plasmodium yoelii nigeriensis

>  <label-class>
Criterion met

$$$$
>  <compound>
C/C(=C/CO)C12OOC3(OC1CC(=O)c1ccccc12)C1CC2CC(C1)CC3C2 (stereo unspecified)

>  <tested-system>
Plasmodium yoelii nigeriensis

>  <label-class>
Criterion not met

$$$$
>  <compound>
C/C(=C/CO)C12OOC3(CCCCC3)OC1CC(=O)c1ccccc12 (stereo unspecified)

>  <tested-system>
Plasmodium yoelii nigeriensis

>  <label-class>
Criterion not met

$$$$
>  <compound>
C=C(c1ccc(OC(C)(C)CO)c2ccccc12)C1COC(C)(C)OO1 (stereo unspecified)

>  <tested-system>
Plasmodium yoelii nigeriensis

>  <label-class>
Criterion met

$$$$
>  <compound>
C=C(c1ccc(O[Si](C)(C)C(C)(C)C)c2ccccc12)C1COC(C)(C)OO1 (stereo unspecified)

>  <tested-system>
Plasmodium yoelii nigeriensis

>  <label-class>
Criterion met

$$$$
>  <compound>
C=C(c1ccc(O[Si](C)(C)C(C)(C)C)c2ccccc12)C1COC2(CCCC2)OO1 (stereo unspecified)

>  <tested-system>
Plasmodium yoelii nigeriensis

>  <label-class>
Criterion met

$$$$
>  <compound>
C=C(c1ccc(OCCO)c2ccccc12)C1COC2(CCCC2)OO1 (stereo unspecified)

>  <tested-system>
Plasmodium yoelii nigeriensis

>  <label-class>
Criterion not met

$$$$
>  <compound>
C=C(c1ccc(O[Si](C)(C)C(C)(C)C)c2ccccc12)C1COC2(CCCCC2)OO1 (stereo unspecified)

>  <tested-system>
Plasmodium yoelii nigeriensis

>  <label-class>
Criterion not met

$$$$
>  <compound>
C=C(c1ccc(OC(C)(C)CO)c2ccccc12)C1COC2(CCCCC2)OO1 (stereo unspecified)

>  <tested-system>
Plasmodium yoelii nigeriensis

>  <label-class>
Criterion not met

$$$$
>  <compound>
C/C(=C/CO)C12OOC(C)(C)OC1CC(=O)c1ccccc12 (stereo unspecified)

>  <tested-system>
Plasmodium yoelii nigeriensis

>  <label-class>
Criterion not met

$$$$
>  <compound>
C=C(c1ccc(OCCO)c2ccccc12)C1COC(C)(C)OO1 (stereo unspecified)

>  <tested-system>
Plasmodium yoelii nigeriensis

>  <label-class>
Criterion met

$$$$
>  <compound>
C=C(c1ccc(O[Si](C)(C)C(C)(C)C)c2ccccc12)C1COC2(OO1)C1CC3CC(C1)CC2C3 (stereo unspecified)

>  <tested-system>
Plasmodium yoelii nigeriensis

>  <label-class>
Criterion met

$$$$
